test.target: RORγ (UniProt P51449)
Construct: hRORg-LBD|aa259-518|NP_005051.2; hRORgt|aa1-497|NP_001001523 (RORg, t isoform, 497aa); mRORg-LBD|aa264-516|NP_035411
Sequence (P51449 1-518): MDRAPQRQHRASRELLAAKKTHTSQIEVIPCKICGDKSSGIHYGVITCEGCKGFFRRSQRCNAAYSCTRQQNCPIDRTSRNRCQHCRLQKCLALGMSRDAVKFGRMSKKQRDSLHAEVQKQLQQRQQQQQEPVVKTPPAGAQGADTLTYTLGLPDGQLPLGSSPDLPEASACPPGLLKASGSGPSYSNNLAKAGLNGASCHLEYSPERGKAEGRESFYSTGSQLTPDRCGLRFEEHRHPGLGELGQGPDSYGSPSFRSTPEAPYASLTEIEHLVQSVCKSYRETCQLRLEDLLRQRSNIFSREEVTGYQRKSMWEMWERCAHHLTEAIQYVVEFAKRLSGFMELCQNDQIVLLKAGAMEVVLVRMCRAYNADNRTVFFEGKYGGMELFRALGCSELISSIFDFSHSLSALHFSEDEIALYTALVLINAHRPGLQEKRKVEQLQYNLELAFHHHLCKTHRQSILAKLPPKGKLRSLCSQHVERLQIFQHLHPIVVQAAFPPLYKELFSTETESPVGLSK
Type: cell-based
run.parameters: renilla normalised (RENnorm) luciferase, 293T cells, 16 h
For each entry below, report its pIC50 (REN) value.
Give bare numbers.

- compound: "CC(C)(C)c1cc(-c2[nH]c(C(=O)NC3CCOCC3)cc2CC2CCCCC2)cc(C2(C)CC2)c1 [Example 12]"
  pIC50 (REN): 6.8

Now for another entry.
Prompt line: // lookup pIC50 (REN) | system=RORγ (UniProt P51449) | key= CC(C)(C)c1cc(-n2nc(C(N)=O)cc2CC2CCCCC2)cc(C(C)(C)C)c1 [Example 312]
Response line: 6.3
